experiment: Toxicity liver stage against HepG2, at 10uM; assay type: cell-based; parameters: test concentration 10 uM, cell line HepG2-A16-CD81EGFP; conditions: human, HepG2-A16-CD81EGFP cells; read-out: INHIBITION
Below, each entry is listed with its recorded cytotoxicity at 10 µM.
Quick note: unit goes after the number.

Below: 10 molecules and their reported cytotoxicity at 10 µM.
O=C(O)c1ccn(-c2ccccc2NS(=O)(=O)c2cccc(F)c2)n1 : -18.6%
Cc1cnn(CC2CCCCN2C(=O)c2cc(C(N)=O)cs2)c1 (centres undefined) : 2.02%
O=C(NCCCO)c1nc(-c2ccc3cc[nH]c3c2)no1 : 4.28%
Cc1cc(C(F)(F)F)nc(N(C)Cc2c(C)noc2C)n1 : -13.2%
COc1ccc(NC(=O)c2cc3c([nH]c2=O)CCCC3=O)c(OC)c1 : -0.0455%
c1ccc(N(CCn2cncn2)CC2CC2)cc1 : 3.04%
CCS(=O)(=O)CCNC(=O)c1cc2n(n1)CCCO2 : -8.81%
CC(Cc1c(F)cccc1F)NC(=O)CN(CC(N)=O)C(C)C (centres undefined) : -10.5%
COCc1cccc(C(=O)N2CCN(C3=NCC(C)(C)S3)CC2)c1 : 4.65%
Cc1cnc(N2CCOC3(CCCN(CC(=O)N(C)C)C3)C2)nc1 (centres undefined) : 8.67%

## Task Note down cytotoxicity at 10 µM recorded for CC(c1ccccc1)N(C)C(=O)CN1CCN(c2cnccn2)CC1 (centres undefined)
## Result 3.96%

## Task Note cytotoxicity at 10 µM for the molecule shown: CN(C)C(=O)CCC1CCCN(Cc2ccc(-c3cccnc3)cc2)C1 (centres undefined)
## Result 4.96%

## Task Respond only with cytotoxicity at 10 µM recorded for Cc1ccncc1CN1CCOCC1c1[nH]ncc1C (centres undefined)
## Result 1.78%

## Task Return reported cytotoxicity at 10 µM. Input molecule: `CCn1cc(-c2cc(C(F)(F)F)nc(NC3CCCC3)n2)c(C)n1`
## Result 2.33%
